Tested on: K562
Experiment: NCI tumour cell line growth inhibition, 48 h
The source made the active and inactive calls. Rule as the data show it: active = GI50 up to about 1.1 µM and inactive = higher.
Please reply with one of these outcomes: active, inactive

Exercise: Please let me know the test result on file for CC[C@@H]1OC2(C)CC(S(=O)(=O)c3ccccc3O)CC1O2 (some centres undefined) .
Key: inactive

Exercise: And then CCOc1ccc(NC(=O)CC#N)cc1 , what is it?
Key: inactive

Exercise: Same question for CC1(C)C2CCC1(CC(=O)O)C(Cl)C2 (centres undefined) please.
Key: inactive

Exercise: Another compound: CC(=O)CC(=O)OC1CC(C)CCC1C(C)C (centres undefined)
Key: inactive

Exercise: Check COc1cccc2c1OC(c1ccc(Cl)cc1)C([N+](=O)[O-])=C2 (centres undefined) too.
Key: active

Exercise: Also need NCCCN1CCN(CCCNc2ccc3nnn4c5ccccc5c(=O)c2c34)CC1 , thanks.
Key: inactive

Exercise: Now the compound CC(=O)Nc1ccc(-c2cc(C(=O)O)c3cc4ccccc4cc3n2)cc1
Key: inactive

Exercise: What about O=C(O)COc1cccc2ccccc(=O)c12 ?
Key: inactive

Exercise: Could you do the same for O=C(OC[C@H]1C[C@H]2C(=O)CCC[C@H]2O1)c1ccccc1 , please?
Key: inactive
